Measured cytotoxicity at 10 µM accompanies every entry in the list below.
# assay.protocol: Toxicity liver stage against HepG2, at 10uM
# Format: cell-based
# Set-up: test concentration 10 uM, cell line HepG2-A16-CD81EGFP
# condition.context: human, HepG2-A16-CD81EGFP cells; read-out: INHIBITION
A number alone suffices; assume %.

See these solved cases before continuing.
molecule	uom	numeric.readout
Cc1cc(C(=O)N2CCCC2c2nnc3n2CCCCC3)on1 (stereo not given)	%	1.68
CCOc1ncnc2c1CCN(C(=O)CN(C)C)CC2	%	-5.12

The molecule listed as CC(C)(C)OC(=O)N1CC(CC(=O)NCc2ccsc2)C1 shows cytotoxicity at 10 µM equal to 5.18

Lab note: measured cytotoxicity at 10 µM of CCC(C)(CC(=O)O)NC(=O)Cc1ccccc1Br (stereo not given) was 1.29

Short answer for CCCc1nnsc1C(=O)NCC(O)c1ccoc1 (stereo not given) : cytotoxicity at 10 µM was 4.25

Looking up NC(=O)CN(C(=O)C1Cc2cc(Cl)ccc2O1)C1CCCC1 (stereo not given) , I see its cytotoxicity at 10 µM listed as 10.1

cytotoxicity at 10 µM reported for this molecule CNC(=O)c1cccc(CC2COCCN(Cc3ccsc3)C2)n1 (stereo not given) : -0.257

====

# assay.protocol: Toxicity liver stage against HepG2, at 10uM
# Format: cell-based
# Parameters: test concentration 10 uM, cell line HepG2-A16-CD81EGFP
# condition.context: human, HepG2-A16-CD81EGFP cells; read-out: INHIBITION
measured.endpoint: cytotoxicity at 10 µM (%)
Express your answer in %, writing the number without its unit.

Solved entries:
molecule	cytotoxicity at 10 µM / %
O=C(NCc1ccc(Br)cc1)NCC1CCOC1 (stereo not given)	-4.51
c1ccc(O[C@H]2CO[C@@]3(CCN(Cc4ccc5c(c4)OCO5)C3)C2)nc1	-76.4
CCOCCN1CCC(c2cncc(C)n2)CC1	-2.58

Given item CCc1ncc2c(n1)CN(Cc1nnc(CC)o1)CC2 , the value recorded as its cytotoxicity at 10 µM is -8.8

get_value(item= CCn1ncc2c1C(COCC1CC1)CN(C(=O)c1cccs1)C2 (stereo not given) , readout=cytotoxicity at 10 µM) returns -7.64

====

# assay.protocol: Toxicity liver stage against HepG2, at 10uM
# Format: cell-based
# Set-up: test concentration 10 uM, cell line HepG2-A16-CD81EGFP
# condition.context: human, HepG2-A16-CD81EGFP cells; read-out: INHIBITION
measured.endpoint: cytotoxicity at 10 µM (%)
Your answer is read as %, so omit the unit and give the number.

Solved cases (5 shown):
compound	cytotoxicity at 10 µM (%)
CCN(CC)c1ncc(CNCC2CCCn3ccnc32)s1 (configuration not stated)	-29.9
CCN(CC)S(=O)(=O)CC(=O)N1CCc2ccc(Cl)cc21	-5.42
CCOc1ccc(CNC(C)c2cccc(S(=O)(=O)NC)c2)cc1 (configuration not stated)	16.1
COc1ncccc1C(=O)N1CCC(c2nnc(C3CC3)o2)CC1	3.61
COc1ccc(-c2nc(C)cc(SCC(N)=O)n2)cc1	5.64

Entry under test: CC(C)(C)C1CCC(NCCN2CCOCC2)CC1 (configuration not stated) . Its cytotoxicity at 10 µM was 0.741

Lab note: CN(C)S(=O)(=O)N1C[C@H]2CC[C@@H](C1)N(CCC(=O)NCc1ccco1)C2 gave cytotoxicity at 10 µM of -6.74

# compound NC(=O)c1cccnc1N1CCN(c2ncnc3c2CCNC3)CC1 ; its cytotoxicity at 10 µM = -3.03

// CSc1ccc(C(CNC(=O)C2CC2)N2CCc3sccc3C2)cc1 (configuration not stated) : cytotoxicity at 10 µM value = -5.31

The compound CC(C)NC(=O)NCCn1nc(C(F)(F)F)n(C)c1=O showed cytotoxicity at 10 µM equal to -0.173

Per the records, this compound ( CC1c2ncc(CNC(=O)C3CC3)n2CCN1Cc1ccsc1 (configuration not stated) ) has cytotoxicity at 10 µM equal to 1.06

The compound Cc1ncc2c(n1)CN(CCOCC(F)(F)F)CC2 showed cytotoxicity at 10 µM equal to -0.598

The compound listed as CCc1nnc2n1CCN(C(=O)c1cnc(-c3cccs3)s1)C2 has a reported cytotoxicity at 10 µM of -3.28

GET /value?item= CNC(=O)CN1CCOCC12CCN(Cc1ccncc1)CC2 &field=cytotoxicity at 10 µM returns 3.07

Per the records, this compound ( CC(C)Cc1cc(CNC(=O)c2cccc3c2OCC3)no1 ) has cytotoxicity at 10 µM equal to -47.9

// CC(C)(C)CC(=O)NCC1CCCS1 (configuration not stated) : cytotoxicity at 10 µM value = 11.2

Entry under test: COCC1(NC(=O)Nc2nc(C)ns2)CCCC1 . Its cytotoxicity at 10 µM was 0.512

Just so you know, measured cytotoxicity at 10 µM for O=C(NCC1CC1)[C@H]1CC[C@@H]2[C@@H](CCN2Cc2ccoc2)O1 came out at -14.1
